procedureSummary: log P determination by HPLC (EEC Directive 79/831 Annex V.A8, gradient method)
Format: physicochemical
Rule: Physical data: log P below 4 gives 1 (yes), anything at or above gives 0 (no).

molecule=O=C(/C=C/c1c(-c2ccc(F)cc2)nc2sc(C(F)(F)F)nn12)NC1CCCC1 assignedlabel="1 (yes)"
molecule="CCC(C)NC(=O)/C=C/c1c(-c2ccc(F)cc2)nc2sc(C(F)(F)F)nn12 (centres unmarked)" assignedlabel="1 (yes)"
molecule="CCC(NC(=O)C=Cc1c(-c2ccc(F)cc2)nc2sc(C(F)(F)F)nn12)C1CCCCC1 (centres unmarked)" assignedlabel="0 (no)"
molecule="Cc1ccccc1-c1nc2sc(C(F)(F)F)nn2c1/C=C/C(=O)NC(C)COc1ccccc1 (centres unmarked)" assignedlabel="0 (no)"
molecule="CC(COc1ccccc1)NC(=O)/C=C/c1c(-c2cccc(C(F)(F)F)c2)nc2sc(C(F)(F)F)nn12 (centres unmarked)" assignedlabel="0 (no)"
molecule=O=C(/C=C/c1c(-c2ccc(Cl)cc2Cl)nc2sc(C(F)(F)F)nn12)N1CCCCC1 assignedlabel="0 (no)"
molecule=CC(C)NC(=O)/C=C/c1c(-c2cccc(C(F)(F)F)c2)nc2sc(C(F)(F)F)nn12 assignedlabel="1 (yes)"
